Source: patent US11584714B2

Target: MASP-2 (CCP1-CCP2-SP) (Homo sapiens (Human), UniProt O00187)
Test: biochemical
Format: biochemical
Details: selectivity for MASP-2 inhibition versus thrombin
Structures can show the parent of a compound that is named as a salt.

{"columns": ["compound", "MASP-2 vs. thrombin selectivity"],
 "data": [
  ["Cc1cccc(CNC(=O)[C@H](C)NC(=O)[C@H]2C[C@H](Cc3ccccc3)CN2)c1-n1ncnn1", "** (≥5.0 to <25-fold)"],
  ["COc1cc2ccccc2cc1C[C@@H]1CN[C@@H](C(=O)N[C@@H](C)C(=O)NCc2ccc(N)nc2C)C1 [compound 1478, Dihydrochloride]", "**** (≥100-fold)"],
  ["C[C@H](NC(=O)[C@H](N)CCc1ccccc1)C(=O)NCc1cc(Cl)ccc1OCC(=O)NCCCO", "−− (<1.0-fold)"],
  ["COc1cc(C[C@@H]2CN[C@@H](C(=O)N[C@@H](C)C(=O)NCc3cc(Cl)ccc3-n3cnnn3)C2)cc(OC)c1 [compound 1419, Trifluoroacetate salt]", "* (≥1.0 to <5.0-fold)"],
  ["C[C@H](NC(=O)[C@H]1C[C@H](Cc2ccccc2-c2ccc(Cl)s2)CN1)C(=O)NCc1cc(Cl)ccc1-n1cnnn1 [compound 1409, Trifluoroacetate]", "* (≥1.0 to <5.0-fold)"],
  ["Cc1nc(N)ccc1CNC(=O)[C@H](C)NC(=O)[C@H]1Cc2c([nH]c3ccccc23)CN1 [compound 1389, Hydrochloride]", "**** (≥100-fold)"],
  ["Cc1nc(N)ccc1CNC(=O)[C@H](C)NC(=O)[C@H]1C[C@H](c2ccccc2)CN1", "**** (≥100-fold)"],
  ["CC(=O)Nc1ccc(CCN[C@H](CCc2ccccc2)C(=O)N[C@@H](C)C(=O)NCc2ccc(C(=N)N)cc2)cc1 [compound 1345, dihydrochloride]", "**** (≥100-fold)"],
  ["C[C@H](OC(=O)[C@H](N)CCc1ccccc1)C(=O)NCc1ccc(C(=N)N)cc1 [compound 1315, Hydrochloride]", "* (≥1.0 to <5.0-fold)"],
  ["C[C@H](NC(=O)[C@@H](CCc1ccccc1)NCc1ccc(OCCO)cc1)C(=O)NCc1ccc(C(=N)N)cc1", "* (≥1.0 to <5.0-fold)"],
  ["Cc1cc(Cl)cc(CNC(=O)[C@H](C)NC(=O)[C@H]2C[C@H](Cc3ccccc3-c3ccc(Cl)s3)CN2)c1O [compound 1408, Hydrochloride]", "** (≥5.0 to <25-fold)"],
  ["Cc1nc(N)ccc1CNC(=O)[C@H](C)NC(=O)[C@H]1C[C@H](Cc2cc(Br)no2)CN1 [compound 1421, Di-trifluoroacetate salt]", "**** (≥100-fold)"],
  ["Cc1cnc(NCCc2ccccc2)c(=O)n1CC(=O)NCc1cnc2[nH]cc(Cl)c2c1 [compound 1490, Acetate salt]", "−− (<1.0-fold)"],
  ["Cc1nc(N)ccc1CNC(=O)[C@H](C)NC(=O)[C@H]1C[C@H](Cc2cccc(-c3ccccc3)c2)CN1", "**** (≥100-fold)"],
  ["C[C@H](NC(=O)c1cc(-c2ccccc2)n[nH]1)C(=O)NCc1ccc(C(=N)N)cc1", "*** (≥25 to <100-fold)"],
  ["Cc1nc(N)ccc1CNC(=O)[C@H](C)NC(=O)[C@H]1C[C@H](Cc2cc(Br)c(Cl)s2)CN1 [compound 1483, Di-trifluoroacetate salt]", "**** (≥100-fold)"],
  ["Cc1nc(N)ccc1CNC(=O)[C@H](C)NC(=O)[C@H]1C[C@H](Cc2ccc(OC(F)(F)F)c(Cl)c2)CN1 [compound 1455, Di-trifluoroacetate salt]", "**** (≥100-fold)"],
  ["C[C@H](NC(=O)[C@H]1C[C@H](c2ccccc2)CN1)C(=O)NCc1cnc2[nH]ccc2c1 [compound 1311, Dihydrochloride]", "* (≥1.0 to <5.0-fold)"],
  ["C[C@H](NC(=O)[C@@H](CCc1ccccc1)NCCc1ccc(O)cc1)C(=O)NCc1ccc(C(=N)N)cc1 [compound 1327, dihydrochloride]", "*** (≥25 to <100-fold)"],
  ["Cc1nc(N)ccc1CNC(=O)[C@H](C)NC(=O)[C@H]1C[C@H](Cc2ccc(Cl)cc2Cl)CN1 [compound 1443, Dihydrochloride]", "*** (≥25 to <100-fold)"],
  ["Cc1nc(N)ccc1CNC(=O)[C@H](C)NC(=O)[C@H]1C[C@H](Cc2cc(-c3ccccc3)cs2)CN1 [compound 1399, Dihydrochloride]", "**** (≥100-fold)"],
  ["C[C@H](NC(=O)[C@H]1C[C@H](Cc2ccccc2-c2ccccc2)CN1)C(=O)NCc1cnc2[nH]cc(Cl)c2c1 [compound 1393, Di-trifluoroacetate salt]", "* (≥1.0 to <5.0-fold)"],
  ["Cc1nc(N)ccc1CNC(=O)[C@H](C)NC(=O)[C@@H](CCc1ccccc1)NCCc1cccc(O)c1 [compound 1349, Dihydrochloride]", "** (≥5.0 to <25-fold)"],
  ["C[C@H](NC(=O)[C@H](N)CCc1ccccc1)C(=O)NCc1ccnc(N)c1 [compound 1296, Dihydrochloride]", "** (≥5.0 to <25-fold)"],
  ["Cc1cc(Cl)cc(CNC(=O)[C@H](C)NC(=O)[C@H]2C[C@H](Cc3ccccc3)CN2)c1O [compound 1307, Hydrochloride]", "**** (≥100-fold)"]
]}

---

pKi by entry:
Molecular target: MASP-2 (Homo sapiens (Human), UniProt O00187)
Sequence (O00187 16-686): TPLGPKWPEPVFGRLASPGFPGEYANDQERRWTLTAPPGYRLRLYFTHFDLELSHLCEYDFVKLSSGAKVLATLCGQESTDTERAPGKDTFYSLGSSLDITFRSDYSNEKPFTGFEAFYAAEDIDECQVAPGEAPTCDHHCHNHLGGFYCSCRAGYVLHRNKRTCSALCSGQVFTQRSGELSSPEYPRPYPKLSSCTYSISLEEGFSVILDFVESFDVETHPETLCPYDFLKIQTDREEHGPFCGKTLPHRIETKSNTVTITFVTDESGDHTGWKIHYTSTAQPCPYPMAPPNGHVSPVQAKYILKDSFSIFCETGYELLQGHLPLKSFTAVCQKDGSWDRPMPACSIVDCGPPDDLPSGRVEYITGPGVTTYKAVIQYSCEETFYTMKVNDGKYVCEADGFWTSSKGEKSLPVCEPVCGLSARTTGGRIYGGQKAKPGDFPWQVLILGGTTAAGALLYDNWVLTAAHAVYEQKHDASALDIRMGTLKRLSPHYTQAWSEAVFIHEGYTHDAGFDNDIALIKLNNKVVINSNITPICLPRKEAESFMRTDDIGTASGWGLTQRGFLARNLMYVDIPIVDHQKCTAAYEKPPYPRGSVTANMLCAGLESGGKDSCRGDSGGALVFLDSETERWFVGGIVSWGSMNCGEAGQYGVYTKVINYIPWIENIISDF
Experiment: MASP-2 inhibition (Ki)
Format: biochemical
pKi: −log10 of the molar value.

{"columns": ["compound", "pKi"],
 "data": [
  ["O=c1oc(-c2cccs2)nc2ccccc12", "> 5.00"],
  ["CC(=O)Nc1ccc(OC(=O)c2ccccc2NC(=O)c2ccccc2Br)cc1", "> 5.00"],
  ["O=c1[nH]c2ccccc2c(=O)o1", "> 5.00"],
  ["CN(C(=O)c1cc2ccccc2cc1C(=O)C(c1cccc2ccccc12)P(=O)(O)O)C1CCN(C(=O)c2ccccc2)CC1 (stereo not shown)", "4.60 to 5.00"],
  ["O=C(O)c1cc(N2N=C(C(F)(F)F)/C(=C\\C=C\\c3ccco3)C2=O)ccc1Cl", "4.00 to 4.60"],
  ["Cc1sc2nc(-c3ccccc3F)oc(=O)c2c1C", "> 5.00"],
  ["Nc1nc2ccccc2[nH]1", "4.00 to 4.60"],
  ["O=C(O)/C=C/C=C/c1ccco1", "4.60 to 5.00"],
  ["COc1cccc2c1NC(C(=O)O)C1CC=CC21 (stereo not shown)", "4.00 to 4.60"],
  ["O=Cc1ccc(OC(=O)c2ccco2)cc1", "> 5.00"]
]}

---

Molecular target: human α-thrombin (Homo sapiens (Human), UniProt P00734)
Test: Enzymatic assay for thrombin (Boc-VPR-AMC substrate)
Assay type: biochemical
Conditions: Thrombin Ki (μM)
Where a name gives a salt, the structure may show the parent alone.

{"columns": ["molecule", "test.system", "Ki"],
 "data": [
  ["Cc1cc(Br)cc(CNC(=O)[C@H](C)NC(=O)[C@H]2C[C@H](Cc3ccccc3)CN2)c1-n1cnnn1 [compound 1436, Trifluoroacetate]", "human α-thrombin (Homo sapiens (Human), UniProt P00734)", "10 to 25 µM"],
  ["C[C@H](NC(=O)[C@@H]1C[C@@H](Cc2ccccc2)CN1)C(=O)NCc1ccc(C(=N)N)cc1", "human α-thrombin (Homo sapiens (Human), UniProt P00734)", "2.5 to 10 µM"],
  ["Cc1nc(N)ccc1CNC(=O)[C@H](C)NC(=O)[C@H]1C[C@H](Cc2csc(Cl)c2)CN1 [compound 1461, Dihydrochloride]", "human α-thrombin (Homo sapiens (Human), UniProt P00734)", "0.5 to 2.5 µM"],
  ["Cc1nc(N)ccc1CNC(=O)[C@H](C)NC(=O)[C@@H](CCc1ccccc1)NCc1ccc(Cl)cc1", "human α-thrombin (Homo sapiens (Human), UniProt P00734)", "10 to 25 µM"],
  ["C[C@H](NC(=O)[C@H]1C[C@H](c2ccccc2)CN1)C(=O)NCc1cc(Cl)ccc1-n1ncnn1 [compound 1394, Trifluoroacetate]", "human α-thrombin (Homo sapiens (Human), UniProt P00734)", "10 to 25 µM"],
  ["COc1ccc(-c2c[nH]c(C(=O)N[C@@H](C)C(=O)NCc3ccc(C(=N)N)cc3)c2)cc1", "human α-thrombin (Homo sapiens (Human), UniProt P00734)", "2.5 to 10 µM"],
  ["COc1cccc([C@H]2CN[C@@H](C(=O)N[C@@H](C)C(=O)NCc3ccc(C(=N)N)cc3)C2)c1", "human α-thrombin (Homo sapiens (Human), UniProt P00734)", "0.5 to 2.5 µM"],
  ["Cc1nc(N)ccc1CNC(=O)[C@H](C)NC(=O)[C@H]1C[C@H](Cc2ccc(C#N)cc2)CN1 [compound 1428, Di-trifluoroacetate salt]", "human α-thrombin (Homo sapiens (Human), UniProt P00734)", "10 to 25 µM"],
  ["Cc1nc(N)ccc1CNC(=O)[C@H](C)NC(=O)[C@H]1C[C@@H](CCc2ccccc2)CN1 [compound 1322, Dihydrochloride]", "human α-thrombin (Homo sapiens (Human), UniProt P00734)", "10 to 25 µM"],
  ["Cc1nc(N)ccc1CNC(=O)[C@H](C)NC(=O)[C@H]1C[C@H](c2ccccc2)CCN1 [compound 1308, Dihydrochloride]", "human α-thrombin (Homo sapiens (Human), UniProt P00734)", "10 to 25 µM"],
  ["C[C@H](NC(=O)[C@H]1C[C@H](c2ccccc2)CN1)C(=O)NCc1ccc(C(=N)N)c(F)c1 [compound 1300, Di-trifluoroacetate salt]", "human α-thrombin (Homo sapiens (Human), UniProt P00734)", "2.5 to 10 µM"],
  ["Cc1cccc(C[C@@H]2CN[C@@H](C(=O)N[C@@H](C)C(=O)NCc3ccc(N)nc3C)C2)c1 [compound 1337, dihydrochloride]", "human α-thrombin (Homo sapiens (Human), UniProt P00734)", "0.5 to 2.5 µM"],
  ["Cc1nc(N)ccc1CNC(=O)[C@H](C)NC(=O)[C@H]1C[C@H](Cc2ccc(F)c(Cl)c2)CN1 [compound 1459, Di-trifluoroacetate salt]", "human α-thrombin (Homo sapiens (Human), UniProt P00734)", "2.5 to 10 µM"],
  ["C[C@H](NC(=O)[C@H]1C[C@H](Cc2ccc(F)c(Cl)c2)CN1)C(=O)NCc1cc2cnccc2[nH]1 [compound 1494, Di-trifluoroacetate salt]", "human α-thrombin (Homo sapiens (Human), UniProt P00734)", "2.5 to 10 µM"],
  ["Cc1cc(Cl)cc(CNC(=O)[C@H](C)NC(=O)[C@H]2C[C@H](Cc3ccccc3-c3ccc(Cl)s3)CN2)c1O [compound 1408, Hydrochloride]", "human α-thrombin (Homo sapiens (Human), UniProt P00734)", "2.5 to 10 µM"],
  ["C[C@H](NC(=O)[C@H]1C[C@@H](c2ccccc2)CCN1)C(=O)NCc1cnc2[nH]cc(Cl)c2c1", "human α-thrombin (Homo sapiens (Human), UniProt P00734)", "0.5 to 2.5 µM"],
  ["Cc1nc(N)ccc1CNC(=O)[C@H](C)NC(=O)[C@H]1C[C@@H](Cc2ccccc2)CN1", "human α-thrombin (Homo sapiens (Human), UniProt P00734)", "2.5 to 10 µM"],
  ["C[C@H](NC(=O)[C@H]1C[C@H](c2ccccc2)CN1)C(=O)NCc1ccc(C(=N)N)nc1", "human α-thrombin (Homo sapiens (Human), UniProt P00734)", "0.5 to 2.5 µM"],
  ["C[C@H](NC(=O)[C@H]1C[C@H](Cc2ccccc2)CN1)C(=O)NCc1cc2cnccc2[nH]1 [compound 1472, Di-trifluoroacetate salt]", "human α-thrombin (Homo sapiens (Human), UniProt P00734)", "2.5 to 10 µM"],
  ["Cc1cc(Cl)cc(CNC(=O)[C@H](C)NC(=O)[C@H]2C[C@@H](Cc3ccccc3)CCN2)c1O [compound 1363, Hydrochloride]", "human α-thrombin (Homo sapiens (Human), UniProt P00734)", "2.5 to 10 µM"],
  ["Cc1nc(N)ccc1CNC(=O)[C@H](C)NC(=O)[C@@H](CCc1ccccc1)NCc1ccc(C(=O)N2CCOCC2)cc1 [compound 1381, Di-trifluoroacetate salt]", "human α-thrombin (Homo sapiens (Human), UniProt P00734)", "10 to 25 µM"],
  ["Cc1cc(C[C@@H]2CN[C@@H](C(=O)N[C@@H](C)C(=O)NCc3ccc(N)nc3C)C2)ccn1 [compound 1469, Dihydrochloride]", "human α-thrombin (Homo sapiens (Human), UniProt P00734)", "2.5 to 10 µM"],
  ["CCCCCN[C@H](CCc1ccccc1)C(=O)N[C@@H](C)C(=O)NCc1ccc(N)nc1C [compound 1377, Di-trifluoroacetate salt]", "human α-thrombin (Homo sapiens (Human), UniProt P00734)", "10 to 25 µM"],
  ["N=C(N)c1ccc(CNC(=O)[C@H](CCC(N)=O)NC(=O)[C@H](N)CCc2ccccc2)cc1 [compound 1335, Di-trifluoroacetate]", "human α-thrombin (Homo sapiens (Human), UniProt P00734)", "2.5 to 10 µM"]
]}
